Assay: Organ/tissue residence times
Format: in vivo, human
Conditions: all patients, monoexponential fit
observed.property: residence time, Lungs, Mean (h)
Entry rule: numbers only, all in h.

For the compound shown here, N=C(N)NCCC[C@@H]1NC(=O)[C@H](CCCCNC(=O)CCC(C(=O)O)N2CCN(CC(=O)O)CCN(CC(=O)O)CC2)NC(=O)[C@@H](Cc2ccccc2)NC(=O)[C@H](CC(=O)O)NC(=O)CNC1=O (stereo partly shown) [[^68Ga]NODAGA-RGD, metal not drawn] , give the reported residence time, Lungs, Mean.
0.011

* * *

Assay: PET/CT biodistribution (%ID/l, SUV)
Assay type: in vivo, human
Conditions: human, liver, intravenous, total radioactivity, 60 min p.i., patients; read-out: median SUV, liver
observed.property: SUV at 1 h
Be sure to follow the number with its unit.

For the compound shown here, N=C(N)NCCC[C@@H]1NC(=O)[C@H](CCCCNC(=O)CCC(C(=O)O)N2CCN(CC(=O)O)CCN(CC(=O)O)CC2)NC(=O)[C@@H](Cc2ccccc2)NC(=O)[C@H](CC(=O)O)NC(=O)CNC1=O (stereo partly shown) [[^68Ga]NODAGA-RGD, metal not drawn] , give the reported SUV at 1 h.
2.9 SUV

* * *

Test: PET/CT biodistribution (%ID/l, SUV)
Type: in vivo, human
Settings: human, spleen, intravenous, total radioactivity, 60 min p.i., patients; read-out: median SUV, spleen
Procedure: For each patient, a total of three PET/CT scans were performed using a Discovery PET/CT 690 VCT scanner (GE Healthcare, Milwaukee, WI, USA). The patients were allowed to urinate after the second scan and a sample of the urine was collected for metabolic analysis. […]
observed.property: SUV at 1 h (SUV)
Entry rule: numbers only, all in SUV.

For the compound shown here, N=C(N)NCCC[C@@H]1NC(=O)[C@H](CCCCNC(=O)CCC(C(=O)O)N2CCN(CC(=O)O)CCN(CC(=O)O)CC2)NC(=O)[C@@H](Cc2ccccc2)NC(=O)[C@H](CC(=O)O)NC(=O)CNC1=O (stereo partly shown) [[^68Ga]NODAGA-RGD, metal not drawn] , give the reported SUV at 1 h.
3.8

* * *

Assay: PET/CT biodistribution (%ID/l, SUV)
Type: in vivo, human
Conditions: human, muscle, intravenous, total radioactivity, 60 min p.i., patients; read-out: median SUV, muscle
observed.property: SUV at 1 h (SUV)
Entry rule: numbers only, all in SUV.

For the compound shown here, N=C(N)NCCC[C@@H]1NC(=O)[C@H](CCCCNC(=O)CCC(C(=O)O)N2CCN(CC(=O)O)CCN(CC(=O)O)CC2)NC(=O)[C@@H](Cc2ccccc2)NC(=O)[C@H](CC(=O)O)NC(=O)CNC1=O (stereo partly shown) [[^68Ga]NODAGA-RGD, metal not drawn] , give the reported SUV at 1 h.
0.26

* * *

Assay: Organ/tissue residence times
Format: in vivo, human
Conditions: all patients, monoexponential fit
observed.property: residence time, Blood, Mean (h)
Entry rule: numbers only, all in h.

For the molecule shown here, N=C(N)NCCC[C@@H]1NC(=O)[C@H](CCCCNC(=O)CCC(C(=O)O)N2CCN(CC(=O)O)CCN(CC(=O)O)CC2)NC(=O)[C@@H](Cc2ccccc2)NC(=O)[C@H](CC(=O)O)NC(=O)CNC1=O (stereo partly shown) [[^68Ga]NODAGA-RGD, metal not drawn] , give the reported residence time, Blood, Mean.
0.011

* * *

Assay: PET/CT biodistribution (%ID/l, SUV)
Type: in vivo, human
Conditions: human, blood, intravenous, total radioactivity, 60 min p.i., patients; read-out: median SUV, blood
observed.property: SUV at 1 h

For the compound shown here, N=C(N)NCCC[C@@H]1NC(=O)[C@H](CCCCNC(=O)CCC(C(=O)O)N2CCN(CC(=O)O)CCN(CC(=O)O)CC2)NC(=O)[C@@H](Cc2ccccc2)NC(=O)[C@H](CC(=O)O)NC(=O)CNC1=O (stereo partly shown) [[^68Ga]NODAGA-RGD, metal not drawn] , give the reported SUV at 1 h.
0.72 SUV

* * *

Test: Organ/tissue residence times
Assay type: in vivo, human
Conditions: all patients, monoexponential fit
observed.property: residence time, Liver, Mean (h)
Entry rule: numbers only, all in h.

For the molecule shown here, N=C(N)NCCC[C@@H]1NC(=O)[C@H](CCCCNC(=O)CCC(C(=O)O)N2CCN(CC(=O)O)CCN(CC(=O)O)CC2)NC(=O)[C@@H](Cc2ccccc2)NC(=O)[C@H](CC(=O)O)NC(=O)CNC1=O (stereo partly shown) [[^68Ga]NODAGA-RGD, metal not drawn] , give the reported residence time, Liver, Mean.
0.113
